Tested on: NCI-H460 lung
Assay Comment: NCI-60 one-dose screen, 48 h
Condition Parameters: 10 µM unless noted
The panel holds about 83,000 compounds, 20% with a hit somewhere; the sample as a whole holds those more often. Activity calls are given as the source filed them. How the source made its calls: active means growth percent below 10; inactive means the rest.
Your reply should match one of these outcome classes. active, inactive

The following molecules have reported results that may help.
> print(dat)
                                    molecule  category.label
 1  O=C1CCc2c(sc3[nH]c(=S)n(-c4ccc(OC(F)(F)F)cc4)c(=O)c23)C1          active
 2  COC(=O)c1ccc(C2Nc3ccc(S(=O)(=O)Nc4ccc(C)c(C)c4)cc3C3OCCC23)cc1 (stereo not given)        inactive
 3                      O=Cc1ccc(O)c2ncccc12        inactive
 4  CCCCc1ccc(Nc2ccc(Nc3ccc(CCCC)cc3S(=O)(=O)O)c3c2C(=O)c2ccccc2C3=O)c(S(=O)(=O)O)c1        inactive
 5  CN1CCN(CC(=O)Nc2nc(-c3cccc(NS(=O)(=O)c4cccc5c(N(C)C)cccc45)c3)cs2)CC1        inactive
 6  Cc1ccc(Nc2ccc(Nc3ccc(C)cc3)c3c2C(=O)c2cccc(O)c2C3=O)cc1        inactive
 7  C=C(C)[C@@H]1CC=C2c3sc(-c4ccc(C)cc4)nc3C[C@@H](C)[C@]2(C)C1        inactive
 8  COc1ccc(-c2nc(SCCC(C)C)nc(N/N=C\c3cccc([N+](=O)[O-])c3)c2C#N)cc1        inactive
 9  C=CCn1c(C)nc2cc(Nc3nc(N4CCCC4)nc4ccccc34)ccc21        inactive
10               N[C@@H](CCCCNCC(=O)O)C(=O)O        inactive

Exercise: Dear colleague, could you share the recorded outcome for COc1ccc(N=Nc2ccc(O)c(=O)cc2)cc1 when you have a moment?
Solution: active

Exercise: For Cc1ccc(-c2cc(-c3cccnc3)[nH]c(=O)c2C#N)cc1 , what call appears in the results of this test?
Solution: inactive

Exercise: Record request — test call for COc1ccc(C2=Nc3c(N)ncnc3NC(c3ccc4c(c3)OCO4)C2)cc1 (stereo not given)
Solution: inactive

Exercise: Can you look up the reported call for O=C(Nc1ccccc1)Nc1cccc(Oc2nnc(Cl)c3ccccc23)c1 for me?
Solution: inactive

Exercise: Please let me know the test result on file for O=C1CCC2=C3C4CCCCC4C(=O)C4CCCC(OC2C1)C34 (stereo not given) .
Solution: active

* * *

System: HCC-2998 colon
Assay Comment: NCI-60 one-dose screen, 48 h (100 = growth as untreated, 0 = no growth, -100 = all killed)
Condition Parameters: 10 µM unless noted
The panel holds about 83,000 compounds, 20% with a hit somewhere; the sample as a whole holds those more often.
Assay Endpoint: growth (%)
Please reply with the bare figure in % and do not write the unit itself.

Solved entries:
> print(dat)
                                   molecule  experimental.target  observed
1                    C[n+]1cccc(CC(=O)NO)c1       HCC-2998 colon       110
2  CC1SC(c2ccc(OCc3ccccc3)cc2)N(NC(=O)C(O)(c2ccccc2)c2ccccc2)C1=O (configuration not stated)       HCC-2998 colon      79.9
3  COc1cccc(-c2nn(-c3ccccc3)cc2-c2ccnc(NCCNC(=O)c3ccccc3)c2)c1       HCC-2998 colon      71.2
4  c1ccc2c(c1)nc(CN1CCOCC1)n1cc(N3CCCC3)nc21       HCC-2998 colon      99.8
5  O=C(c1ccc(Nc2nccc(NCCCCNc3ccnc4cc(Cl)ccc34)n2)cc1)N1CCCCC1       HCC-2998 colon     -11.2

Exercise: Please report growth for the following molecule: O=C1/C(=C/c2ccc(Br)cc2)C=C(c2ccccc2)N1CCc1ccccc1
Solution: 70.1

Exercise: Tell me its growth given COC(=O)c1ccc(CSc2nnc(-c3c(C)nc4ccc(C)cn34)o2)cc1 as the entry.
Solution: 87

Exercise: Provide one value: measured growth of CC1(C)CC(=O)C2=C(C1)N(c1ccc(OC(F)(F)F)cc1)C(N)=C(C#N)C2c1ccc(Cl)cc1 (configuration not stated)
Solution: 94.7

Exercise: State its growth: CC1CC(C(C)(C)C)C(=O)C(C(C)(C)C)C1 (configuration not stated)
Solution: 111

Exercise: Give recorded growth. Cc1ccc(C2SCC(=O)N2Cc2ccccc2)cc1 (configuration not stated)
Solution: 90.7

Exercise: Provide growth value for the following molecule: COc1nc(N(C)O)nc(N(C)O)n1
Solution: 9.13

Exercise: Using known records, supply growth for CCCCCCCCCCCCCCCCCCOc1ccccc1CC(=O)OCCC[N+](C)(C)C
Solution: 37.2

Exercise: Input Cc1c2c(c(C)c3c1oc1cc(O)ccc13)C(=O)N(CCN1CCCCC1)C2=O , output reported growth.
Solution: 93.6

Exercise: Indicate the recorded growth value for this molecule: Cc1c(C(=O)N[C@@H](Cc2ccccc2)C(=O)C(=O)NCCc2ccccc2)[nH]c2ccccc2c1=O
Solution: 100

Exercise: Please report growth for the following molecule: Cc1ccc(S(=O)(=O)Oc2cc(OS(=O)(=O)c3ccc(C)cc3)cc(OS(=O)(=O)c3ccc(C)cc3)c2)cc1
Solution: 139

Exercise: Look up and state reported growth for COc1cccc(-c2nn(-c3ccccc3)cc2-c2ccnc(NCCCNC(=O)c3ccccc3)c2)c1
Solution: 52.3

Exercise: Answer with the recorded growth for the molecule listed here: CC(C)(C)c1ccc(/C=C/C(=O)Nc2ccc(O)cc2)cc1
Solution: 97

Exercise: Return the recorded growth value; entry: O=C1/C(=C2/C=Nc3ccccc32)N(O)c2ccccc21
Solution: 113

Exercise: Identify growth associated with the molecule CCN1CCN(c2nc(C)cc(NCc3cc(Nc4ccnc5cc(Cl)ccc45)ccc3F)n2)CC1
Solution: -34.9

Exercise: Answer with the recorded growth of Cn1c(-c2c(N)n(Cc3ccc(C(F)(F)F)cc3)c3nc(C#N)c(C#N)nc23)nc2ccccc21 only.
Solution: 14.7

Exercise: Quickly give me recorded growth for Cc1ccc2nc(C)c(-c3nnc(SCc4ccc(C#N)cc4)o3)n2c1
Solution: 108

Exercise: State its growth: Cc1ccc(/C=C2\C(=O)N(C)c3ccc(S(=O)(=O)Nc4ccc(C(C)(C)C)cc4)cc32)s1
Solution: 85
